target: huCTLA4 (Homo sapiens, UniProt P16410); assay: Flow binding to CHO cells stably expressing CTLA4; set-up: huCTLA4 and huPD-L1, full-length mammalian surface expression constructs were generated; expressed in transfected cells; host or cells: CHO cells, lentiviral transduction, sorted to >98% purity; conditions: Table E4; 33.3 nM variant CD80 IgV-Fc; CHO cells stably expressing CTLA4
Sequence (P16410 36-223): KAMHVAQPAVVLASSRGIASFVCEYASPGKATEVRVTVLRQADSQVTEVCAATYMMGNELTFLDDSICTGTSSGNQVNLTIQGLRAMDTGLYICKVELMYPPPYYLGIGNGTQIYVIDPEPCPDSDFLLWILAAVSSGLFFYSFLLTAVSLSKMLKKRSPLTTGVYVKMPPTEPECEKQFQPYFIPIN
Measured CTLA4 MFI at 33.3 nM, listed per entry.
Give a plain numeric answer without units written out.

// below: answered molecules
{"columns": ["molecule", "CTLA4 MFI at 33.3 nM"],
 "data": [
  ["Q33R/E35D/M47V/N48K/L85M/F92L (protein, UniProt P33681 35-288, looked up, variant Q33R E35D M47V N48K L85M F92L, Fc fusion) T-lymphocyte activation …: VIHVTKEVKEVATLSCGHNVSVEELAQTRIYWRKDKKMVLTMMSGDVKIWPEYKNRTIFDITNNLSIVILALRPSDEGTYECVVMKYEKDALKREHLAEVTLSVKADFPTPSISDFEIPTSNIRRIICSTSGGFPEPHLSWLENGEELNAINTTVSQDPETELYAVSSKLDFNMTTNHSFMCLIKYGHLRVNQTFNWNTTKQEHFPDNLLPSWAITLISVNGIFVICCLTYCFAPRCRERRRNERLRRESVRPV", 2680],
  ["E35D/M43I/M47V/K89N (protein, UniProt P33681 35-288, looked up, variant E35D M43I M47V K89N) T-lymphocyte activation …: VIHVTKEVKEVATLSCGHNVSVEELAQTRIYWQKDKKMVLTMISGDVNIWPEYKNRTIFDITNNLSIVILALRPSDEGTYECVVLKYENDAFKREHLAEVTLSVKADFPTPSISDFEIPTSNIRRIICSTSGGFPEPHLSWLENGEELNAINTTVSQDPETELYAVSSKLDFNMTTNHSFMCLIKYGHLRVNQTFNWNTTKQEHFPDNLLPSWAITLISVNGIFVICCLTYCFAPRCRERRRNERLRRESVRPV", 278391],
  ["E35D/A71G (protein, UniProt P33681 35-288, looked up, variant E35D A71G) T-lymphocyte activation …: VIHVTKEVKEVATLSCGHNVSVEELAQTRIYWQKDKKMVLTMMSGDMNIWPEYKNRTIFDITNNLSIVILGLRPSDEGTYECVVLKYEKDAFKREHLAEVTLSVKADFPTPSISDFEIPTSNIRRIICSTSGGFPEPHLSWLENGEELNAINTTVSQDPETELYAVSSKLDFNMTTNHSFMCLIKYGHLRVNQTFNWNTTKQEHFPDNLLPSWAITLISVNGIFVICCLTYCFAPRCRERRRNERLRRESVRPV", 184204]
]}

Would you kindly look at the next entry?
Item E35D/M47I/L85Q/D90G (protein, UniProt P33681 35-288, looked up, variant E35D M47I L85Q D90G) T-lymphocyte activation …: VIHVTKEVKEVATLSCGHNVSVEELAQTRIYWQKDKKMVLTMMSGDINIWPEYKNRTIFDITNNLSIVILALRPSDEGTYECVVQKYEKGAFKREHLAEVTLSVKADFPTPSISDFEIPTSNIRRIICSTSGGFPEPHLSWLENGEELNAINTTVSQDPETELYAVSSKLDFNMTTNHSFMCLIKYGHLRVNQTFNWNTTKQEHFPDNLLPSWAITLISVNGIFVICCLTYCFAPRCRERRRNERLRRESVRPV : provide CTLA4 MFI at 33.3 nM
247703
